All values here come from patent US20130023563A1.

TESTED_TARGET: UniProt:P00742
Sequence (P00742 235-488 limits assumed): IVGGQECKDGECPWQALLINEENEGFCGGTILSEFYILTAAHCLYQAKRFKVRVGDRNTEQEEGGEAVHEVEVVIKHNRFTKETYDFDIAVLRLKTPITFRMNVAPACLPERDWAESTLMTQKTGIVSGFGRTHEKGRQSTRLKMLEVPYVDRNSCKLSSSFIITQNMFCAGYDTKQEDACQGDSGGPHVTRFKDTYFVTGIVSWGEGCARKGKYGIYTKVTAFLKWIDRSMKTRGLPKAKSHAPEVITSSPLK
Sequence (P00742 41-179 partner limits assumed): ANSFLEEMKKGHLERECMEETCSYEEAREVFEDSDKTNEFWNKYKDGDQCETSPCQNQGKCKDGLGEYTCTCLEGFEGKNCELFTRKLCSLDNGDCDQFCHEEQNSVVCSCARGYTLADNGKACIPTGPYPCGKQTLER
TEST_DETAILS: Measurement of inhibitory activity against activated factor X (chromogenic substrate S-2222)
Assay type: biochemical
CONDITION_SUMMARY: 0.015 U/ml FXa, 0.2 mM S-2222, absorbance 405 nm; read-out: FXa (pIC50) (converted)
Catalogue of IC50 readings, one per entry.
RESULT_TYPE: IC50 (µM)

# COMPOUND, TESTED_TARGET, NUMERIC_VALUE
measured = [
    ("N=C(N)c1cccc(N2C[C@H](OCc3ccccc3)C[C@H]2C(=O)Oc2ccc(C(=N)N3CCCC3)cc2)c1", "UniProt:P00742", 0.339),
    ("CCC(C)[C@@H](C(=O)Oc1ccc(C(=N)N2CCCC2)cc1)N(C)c1cccc(C(=N)N)c1 (stereo partly shown)", "UniProt:P00742", 0.00813),
    ("N=C(N)c1cccc(N2CCC[C@H]2C(=O)Oc2ccc(C(=N)N3CCCC3)cc2)c1", "UniProt:P00742", 0.282),
    ("CC(=N)N1CCC(Oc2ccc(OC(=O)[C@@H](C)N(C)c3cccc(C(=N)N)c3)cc2)CC1", "UniProt:P00742", 0.0214),
    ("N=C(N)c1cccc(N2CCCC[C@@H]2C(=O)Oc2ccc(C(=N)N3CCCC3)cc2C(=O)O)c1", "UniProt:P00742", 0.0182),
    ("N=C(N)c1cccc(N2CCCC[C@@H]2C(=O)Oc2ccc(C(=N)N3CCCC3)cc2F)c1", "UniProt:P00742", 0.00513),
    ("CC(=N)N1CCC(Oc2ccc(OC(=O)[C@H]3CCCN3c3cccc(C(=N)N)c3)cc2)CC1", "UniProt:P00742", 0.105),
    ("CCC(C(=O)Oc1ccc(C(=N)N2CCCC2)cc1)N(C)c1cccc(C(=N)N)c1 (stereo not shown)", "UniProt:P00742", 0.00813),
    ("N=C(N)c1cccc(N2C[C@H](O)C[C@H]2C(=O)Oc2ccc(C(=N)N3CCCC3)cc2)c1", "UniProt:P00742", 0.224),
    ("N=C(N)c1cccc(N2CCC[C@H]2COC(=O)c2ccc(C(=N)N3CCCC3)cc2)c1", "UniProt:P00742", 0.398),
    ("COc1cc(C(=N)N2CCCC2)ccc1OC(=O)[C@H](C)N(C)c1cccc(C(=N)N)c1", "UniProt:P00742", 0.0316),
    ("CCCC[C@@H](C(=O)Oc1ccc(C(=N)N2CCCC2)cc1OC)N(C)c1cccc(C(=N)N)c1", "UniProt:P00742", 0.00309),
    ("N=C(N)c1cccc(N2CCCC[C@@H]2C(=O)Oc2ccc(C(=N)N3CCCC3)nc2)c1", "UniProt:P00742", 0.0055),
]
